# system_tested: T1, hPDGFRb.mmh (human, UniProt P09619 33-531)
# T1 construct: Soluble monomeric construct; also called soluble human PDGFR-beta.mmh
# procedure_details: blocking ELISA, biot-hPDGFRb.mmh to coated PDGF-BB
Below, each entry is listed alongside its reported % Maximum Blocking.
Provide the reading as a plain figure in %.

Below, each entry is followed by its recorded % Maximum Blocking result.
binder	% Maximum Blocking (%)
H4H3102S (antibody, human IgG4, V domains shown, human IgG4 Fc (H4H prefix)) VH: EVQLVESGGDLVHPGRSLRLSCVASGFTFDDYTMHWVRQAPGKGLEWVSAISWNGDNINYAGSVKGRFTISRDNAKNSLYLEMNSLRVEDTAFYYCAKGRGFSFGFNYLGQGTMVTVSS VL: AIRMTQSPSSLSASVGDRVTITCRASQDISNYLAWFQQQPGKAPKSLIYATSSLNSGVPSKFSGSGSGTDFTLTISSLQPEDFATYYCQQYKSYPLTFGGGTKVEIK	30
H4H3106S (antibody, human IgG4, V domains shown, human IgG4 Fc (H4H prefix)) VH: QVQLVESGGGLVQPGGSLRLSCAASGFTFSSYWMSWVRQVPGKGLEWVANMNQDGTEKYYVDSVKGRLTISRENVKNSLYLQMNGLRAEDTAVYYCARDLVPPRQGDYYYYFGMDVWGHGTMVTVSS VL: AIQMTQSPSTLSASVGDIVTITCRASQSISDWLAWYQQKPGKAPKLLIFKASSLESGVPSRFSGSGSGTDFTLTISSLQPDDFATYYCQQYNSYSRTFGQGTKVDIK	86
H4H3098S (antibody, human IgG4, V domains shown, human IgG4 Fc (H4H prefix)) VH: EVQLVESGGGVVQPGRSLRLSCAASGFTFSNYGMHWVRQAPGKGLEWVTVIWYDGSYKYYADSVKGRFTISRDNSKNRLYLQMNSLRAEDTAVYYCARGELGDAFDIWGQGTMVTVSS VL: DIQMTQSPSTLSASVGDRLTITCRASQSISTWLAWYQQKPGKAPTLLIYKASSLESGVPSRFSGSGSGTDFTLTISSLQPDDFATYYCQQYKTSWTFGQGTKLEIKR	-13
H4H3094P (antibody, human IgG4, V domains shown, also called H4H3394P) VH: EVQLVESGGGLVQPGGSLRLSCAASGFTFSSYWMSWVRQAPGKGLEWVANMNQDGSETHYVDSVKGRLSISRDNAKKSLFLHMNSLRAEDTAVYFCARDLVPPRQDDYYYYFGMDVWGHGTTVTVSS VL: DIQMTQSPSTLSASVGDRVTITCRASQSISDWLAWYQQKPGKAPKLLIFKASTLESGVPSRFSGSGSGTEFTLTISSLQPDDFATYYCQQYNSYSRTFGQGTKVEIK	85

Prompt: Could you tell me which % Maximum Blocking is on file for H4H3374N (antibody, human IgG4, V domains shown, human IgG4 Fc (H4H prefix)) VH: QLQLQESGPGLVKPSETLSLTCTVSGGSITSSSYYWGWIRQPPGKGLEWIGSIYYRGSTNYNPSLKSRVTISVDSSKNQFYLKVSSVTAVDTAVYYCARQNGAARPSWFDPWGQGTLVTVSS VL: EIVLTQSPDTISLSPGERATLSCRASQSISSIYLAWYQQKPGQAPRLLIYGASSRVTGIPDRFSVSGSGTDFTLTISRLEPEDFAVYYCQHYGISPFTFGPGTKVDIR ?
Completion: 86

Ref: patent US20170210813A1
